Molecular target: Aldehyde dehydrogenase, mitochondrial (Homo sapiens) (UniProt P05091)
Experiment: qHTS for Inhibitors of the Aldehyde Dehydrogenase Family (ALDH2) Primary screen (AID 2061308);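 note: plate controls were vehicle for no effect and reference inhibitor for full effect; nearly all actives have a fitted effect of over 55% in size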
Settings: ALDH2 enzyme inhibition qHTS, 1536-well; series mostly up to 56 µM
Records with an inconclusive call do not appear. The source made the active and inactive calls. Calls come from the whole dose curve; as a rule, active = well fitted inhibition curve with a large enough effect; inconclusive = small, poorly fitted or top-dose-only effect; inactive = flat fitted curve, though single readings scatter.
Readout name: activity change, negative = inhibition

Below are worked cases with known answers.
{"Compound": "CC[C@H]1CN2CC[C@H]1C[C@@H]2[C@@H](O)c1ccnc2ccc(OC)cc12", "activity change, negative = inhibition": "inactive"}
{"Compound": "CCc1c(C(=O)C(N)=O)c2c(OCC(=O)O)cccc2n1Cc1ccccc1", "activity change, negative = inhibition": "inactive"}
{"Compound": "CCOc1ccc(CCNC(=O)c2cc3ccccc3n2CCN2CCOCC2)cc1OCC", "activity change, negative = inhibition": "inactive"}
{"Compound": "CCCCC1C(=O)NC(=O)N(C2CCCCC2)C1=O (stereo not given)", "activity change, negative = inhibition": "inactive"}

Then this compound:
// query Reported activity change, negative = inhibition for `CC(=O)Nc1ccc(OC[C@](C)(O)C(=O)Nc2ccc([N+](=O)[O-])c(C(F)(F)F)c2)cc1` : what is it?
// result inactive

###

Assay: BET inhibitor-based combinations targeting novel dependencies in MECOM-rearranged (r) AML: OCI-AML3 cell line (AID 2202232); note: potency is the fitted concentration of half-maximal effect; nearly all actives have a fitted effect of over 35% in size
Conditions: CellTiter-Glo luminescence, 48 h; OCI-AML3 viability; series mostly up to 46 µM
Results filed as inconclusive are left out. Activity calls are given as the source filed them. Calls follow the shape of the dose curve; as a rule, active = well fitted inhibition curve with a large enough effect; inconclusive = small, poorly fitted or top-dose-only effect; inactive = no such curve, though single readings can be large or run the other way.
Log the outcome using a class from Y = active, N = inactive

{"Molecule": "CC(=O)OC[C@H]1O[C@@H]([S-])[C@H](OC(C)=O)[C@@H](OC(C)=O)[C@@H]1OC(C)=O.CC[PH+](CC)CC.[Au]", "Answer label": "Y"}

// query Which outcome was assigned to `C/C(=C\c1csc(C)n1)[C@@H]1C[C@@H]2O[C@]2(C)CCC[C@H](C)[C@H](O)[C@@H](C)C(=O)C(C)(C)[C@@H](O)CC(=O)O1` in this test?
// result Y

// query Same again, this time with `COc1ccc(N(C(=O)Oc2c(C)cccc2C)c2ccnc(Nc3ccc(N4CCN(C)CC4)cc3)n2)c(OC)c1`
// result Y

###

Biological target: Retinaldehyde dehydrogenase 3 (Homo sapiens) (UniProt P47895)
Assay: qHTS for Inhibitors of the Aldehyde Dehydrogenase Family (ALDH1A3) Primary screen (AID 2061315);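 note: plate controls were DMSO vehicle for no effect and reference inhibitor for full effect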
Conditions: ALDH inhibition qHTS; series mostly up to 56 µM
Records with an inconclusive call do not appear. Active and inactive are the calls of the source. Calls follow the shape of the dose curve; as a rule, active = well fitted inhibition curve with a large enough effect; inconclusive = small, poorly fitted or top-dose-only effect; inactive = no such curve, though single readings can be large or run the other way.
Readout name: activity change, negative = inhibition

Below are worked cases with known answers.
{"Molecule": "Cc1c(N2C(=O)[C@@H]3[C@H](O)CCN3C2=O)ccc(C#N)c1Cl", "activity change, negative = inhibition": "inactive"}
{"Molecule": "CCCCOC(=O)c1ccnc2cc(C(OCCN3CCCCC3)c3ccccc3Cl)sc12 (stereo not drawn)", "activity change, negative = inhibition": "inactive"}
{"Molecule": "C[C@H]1O[C@@H](O[C@H]2C[C@@H](O)[C@]3(CO)C4C(CC[C@]3(O)C2)[C@@]2(O)CC[C@H](C3=CC(=O)OC3)[C@@]2(C)C[C@H]4O)[C@@H](O)[C@@H](O)[C@H]1O (stereo partly drawn)", "activity change, negative = inhibition": "inactive"}
{"Molecule": "C=C1[C@@H](O)[C@]2(O)OC[C@]34C2[C@]2(C)C(C[C@H]3OC(=O)[C@H](O)[C@@]14O)C(C)=CC(=O)[C@H]2O (stereo partly drawn)", "activity change, negative = inhibition": "inactive"}
{"Molecule": "O=C(N1CCCCC1Cc1ccccc1)n1cc(-c2ccc(-c3ccccc3)cc2)nn1 (stereo not drawn)", "activity change, negative = inhibition": "inactive"}

// query Reported activity change, negative = inhibition for `COC(=O)N1CCN(C(=O)Cc2ccc(Cl)c(Cl)c2)[C@@H](CN2CCCC2)C1` : what is it?
// result inactive

// query Same again, this time with `O=C(O)c1ccc(O)c2ncc(N3CCCNCC3)cc12`
// result inactive

// query Same again, this time with `CCOc1ccc(CCNC(=O)c2cc3ccccc3n2CCN2CCOCC2)cc1OCC`
// result inactive

###

Test: BET inhibitor-based combinations targeting novel dependencies in MECOM-rearranged (r) AML: UCSD-AML1 cell line (AID 2202235); note: nearly all actives have a fitted effect of over 40% in size; note: potency is the fitted concentration of half-maximal effect
Conditions: UCSD-AML1 AML cells viability, CellTiter-Glo, 48 h; series mostly up to 46 µM
Inconclusive results are not listed. Active and inactive are the calls of the source. The call rests on the fitted dose curve; in most records, active means well fitted inhibition curve with a large enough effect; inconclusive means small, poorly fitted or top-dose-only effect; inactive means no such curve, though single readings can be large or run the other way.
Readout name: Potency

{"Compound": "O=C(NCCCNc1nc(Nc2ccc(N3CCOCC3)cc2)ncc1C1CC1)C1CCC1", "Readout name": "Potency", "Result": "9340 nM (active)"}
{"Compound": "CC(C)(O)/C=C\\C(=O)[C@](C)(O)[C@H]1[C@H](O)C[C@]2(C)[C@@H]3CC=C4[C@@H](C=C(O)C(=O)C4(C)C)[C@]3(C)C(=O)C[C@@]12C", "Readout name": "Potency", "Result": "148 nM (active)"}
{"Compound": "COc1cc([C@@H]2c3cc4c(cc3[C@@H](O)C3COC(=O)C32)OCO4)cc(OC)c1O (some centres not stated)", "Readout name": "Potency", "Result": "332 nM (active)"}
{"Compound": "C[C@@H]1CC[C@@]2(OC1)O[C@H]1C[C@H]3[C@@H]4CC=C5C[C@@H](O[C@@H]6O[C@H](CO)[C@@H](O[C@@H]7O[C@@H](C)[C@H](O)[C@@H](O)[C@H]7O)[C@H](O)[C@H]6O[C@@H]6O[C@@H](C)[C@H](O)[C@@H](O)[C@H]6O)CC[C@]5(C)[C@H]4CC[C@]3(C)[C@H]1[C@@H]2C", "Readout name": "Potency", "Result": "8330 nM (active)"}
{"Compound": "COc1cc(C)[nH]c(=O)c1CNC(=O)c1c(C)n([C@H](C)C2CCOCC2)c2ccccc12", "Readout name": "Potency", "Result": "inactive"}

// query Reported Potency for `O=C(O)CNC(=O)C1C(=O)N(C2CCCCC2)C(=O)N(C2CCCCC2)C1=O` : what is it?
// result inactive

// query Same again, this time with `CN1C(=O)[C@@H](NC(=O)[C@H](CCC(F)(F)F)[C@H](CCC(F)(F)F)C(N)=O)N=C(c2ccccc2)c2ccccc21`
// result inactive

// query Same again, this time with `O=C(O)c1nn(Cc2ccc(Cl)cc2Cl)c2ccccc12`
// result inactive

// query Same again, this time with O=P1(N(CCCl)CCCl)NCCCO1 (configuration not stated)
// result inactive

###

Molecular target: Cellular tumor antigen p53 (Homo sapiens)
Test: Primary qHTS for small molecule compounds that upregulate eGFP-tagged delta133p53alpha (in N-terminal) cells. (AID 2060322);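 note: cells pre-induced with doxycycline then dosed without doxycycline; 0% = DMSO vehicle and 100% = reference activator; nearly all actives have a fitted effect of over 75% in size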
Conditions: NCI-H358 eGFP-delta133p53alpha fluorescence, 24 h; active compounds read high
Inconclusive results are not listed.
Here the recorded activation is given for each entry.
Write the value in % as a bare number.

{"Molecule": "CCC(=O)O[C@@H]1C=C2CCC3C(CCC4(C)C3CC[C@@H]4OC(=O)CC)C2CC1 (stereo not given in full)", "Reading unit": "%", "Readout number": 6.21}
{"Molecule": "CC1=CC2/C=C(\\C)CCC(O)C(O)C(O)CC(=O)C23C(=O)NC(CC(C)C)C3C1C (stereo not given)", "Reading unit": "%", "Readout number": -32.8}
{"Molecule": "C#CC(O)(C=CCl)CC (stereo not given)", "Reading unit": "%", "Readout number": 19.8}
{"Molecule": "OC(c1ccccc1)(c1ccccc1)C1CCNCC1", "Reading unit": "%", "Readout number": -13.4}
{"Molecule": "C1CN2CCC1CC2", "Reading unit": "%", "Readout number": -19.2}
{"Molecule": "COc1ccc2[nH]cc(CCN)c2c1", "Reading unit": "%", "Readout number": -19.1}
{"Molecule": "CC12Cc3cn[nH]c3C=C1CCC1C2CCC2(C)C1CCC2(C)O (stereo not given)", "Reading unit": "%", "Readout number": 8.33}
{"Molecule": "COC(=O)C1(C)CCC(O)C2(C)c3c(O)cc(C(C)C)cc3C(O)C(OC(C)=O)C12 (stereo not given)", "Reading unit": "%", "Readout number": -9.16}

// query Can you look up activation on Cellular tumor antigen p53 (Homo sapiens) for `CC(C)(C)[C@]1(O)C[C@@H]2OC(=O)C[C@@]23C(=O)O[C@@H]2OC(=O)[C@@H](O)[C@]213` ?
// result -1.79

// query Same again, this time with CCCOC(=O)c1cncn1C(C)c1ccccc1 (stereo not given)
// result 17.5

// query Same again, this time with `CN1C(=O)CN=C(c2ccccc2)c2cc([N+](=O)[O-])ccc21`
// result -19.8

// query Same again, this time with `C=C[C@H]1[C@H](O[C@@H]2O[C@H](CO)[C@@H](O)[C@H](O)[C@H]2O)OC=C2C(=O)OCC[C@H]21`
// result 6.11

// query Same again, this time with `Fc1cc(Br)ccc1CBr`
// result -29.9

// query Same again, this time with `CC(C)[C@H](NC(=O)c1nn(Cc2ccc(F)cc2)c2ccccc12)C(N)=O`
// result -6.68

// query Same again, this time with C[N+]1(C)C2CCC1CC(OC(=O)c1c[nH]c3ccccc13)C2 (stereo not given)
// result -13.4

// query Same again, this time with `CCOC(C(=O)OCCN(C)C)(c1ccccc1)c1ccccc1`
// result -3.95

// query Same again, this time with Cc1ccc2c(c1)C1CN(C)CCC1N2 (stereo not given)
// result 0.837

// query Same again, this time with `CC(C)(N)Cc1ccccc1Cl`
// result 10.7

// query Same again, this time with `NC(=O)COc1c(F)cc(SCCNS(=O)(=O)c2ccccc2)cc1F`
// result -8.4

// query Same again, this time with `CCCN1CCc2cccc3c2[C@H]1Cc1ccc(O)c(O)c1-3`
// result -13.3
